Measured values drawn from the RNAGym collection of RNA variant scans (doi:10.1073/pnas.2313332121) for this set.

For each entry below, report its polymerase ribozyme fitness (log ratio) value.
B1: TPR t1 (parent)
chain: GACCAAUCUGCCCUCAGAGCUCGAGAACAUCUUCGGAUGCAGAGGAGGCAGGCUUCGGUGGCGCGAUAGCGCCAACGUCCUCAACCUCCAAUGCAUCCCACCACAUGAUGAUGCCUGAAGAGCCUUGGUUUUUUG

Variants of: B1
TEST_NAME: polymerase ribozyme fitness, log enrichment relative to wild type (log ratio); higher = more active; in vitro selection for triplet polymerase activity

Asked: Could you share which polymerase ribozyme fitness (log ratio) value was measured for G42A C53U C64U U106A A119G ?
Given back: -1.87

I need polymerase ribozyme fitness (log ratio) for every entry listed below, if you could help.
1. C3U C11U G48A C56U C89G C101U
2. G110A G122A C123U

Given back:
-3.51
-2.1
